Assign Binding signal (MFI) to each entry below.
# assayed_target: SARS-CoV-2 Spike Protein (RBD)(R319-F541).mFc (mAb10621-L1) (SARS-CoV-2)
# test: Luminex bead binding, supernatant
Numbers only, in MFI.

# binder, Binding signal (MFI)
rows = [
    ("mAb11006 (antibody, V domains shown) VH: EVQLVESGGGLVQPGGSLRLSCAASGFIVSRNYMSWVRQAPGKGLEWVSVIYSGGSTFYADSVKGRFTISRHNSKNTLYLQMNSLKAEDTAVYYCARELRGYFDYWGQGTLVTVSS VL: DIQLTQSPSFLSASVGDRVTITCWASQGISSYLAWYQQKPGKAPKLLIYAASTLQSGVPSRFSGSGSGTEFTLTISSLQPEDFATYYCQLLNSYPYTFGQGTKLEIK", 2870),
]

For each of the binders below, state Binding signal (MFI).
1. mAb11008 (antibody, V domains shown) VH: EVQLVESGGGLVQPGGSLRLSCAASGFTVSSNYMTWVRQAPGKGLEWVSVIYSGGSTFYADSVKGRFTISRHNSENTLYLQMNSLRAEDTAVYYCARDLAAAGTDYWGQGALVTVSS VL: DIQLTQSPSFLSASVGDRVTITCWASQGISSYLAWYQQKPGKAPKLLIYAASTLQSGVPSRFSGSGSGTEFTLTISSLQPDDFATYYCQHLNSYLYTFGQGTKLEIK
2. mAb11004 (antibody, V domains shown) VH: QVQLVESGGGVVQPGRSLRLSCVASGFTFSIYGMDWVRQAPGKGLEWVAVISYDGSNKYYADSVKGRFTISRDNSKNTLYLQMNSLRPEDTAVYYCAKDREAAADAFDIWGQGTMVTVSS VL: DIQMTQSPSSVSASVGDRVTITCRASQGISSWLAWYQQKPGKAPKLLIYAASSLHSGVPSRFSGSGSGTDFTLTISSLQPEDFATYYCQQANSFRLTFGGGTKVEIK
3. mAb10998 (antibody, V domains shown) VH: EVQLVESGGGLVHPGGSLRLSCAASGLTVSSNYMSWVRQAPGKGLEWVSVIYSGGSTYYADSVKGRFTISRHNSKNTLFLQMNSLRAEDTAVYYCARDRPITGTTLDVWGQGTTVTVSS VL: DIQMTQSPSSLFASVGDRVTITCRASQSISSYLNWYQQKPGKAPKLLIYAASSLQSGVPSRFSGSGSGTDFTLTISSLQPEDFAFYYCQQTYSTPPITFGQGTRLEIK

*A*
1: 4260; 2: 4580; 3: 2230
